Listed below are compounds with Ki for Urokinase-type plasminogen activator (Homo sapiens, UniProt P00749), each taken from published literature.
Property Label: Ki

>>> val("COC(=O)Nc1ccc(-c2cc([C@H](Cc3ccccc3)NC(=O)/C=C/c3cc(Cl)ccc3-n3cnnn3)nnc2Cl)cc1")
"> 29.7 µM"
>>> val("COC(=O)Nc1ccc(-c2ccnc([C@H](Cc3ccccc3)NC(=O)/C=C/c3cc(Cl)ccc3-n3cnnn3)c2)cc1")
"> 29.7 µM"
>>> val("CCOC(=O)CN[C@H](CCc1ccc(O)cc1)C(=O)N1CCC[C@H]1C(=O)NCc1cc(Cl)ccc1CN")
"> 5 µM"

----------
Listed below are molecules with log10(Ki) for Urokinase-type plasminogen activator (Homo sapiens, UniProt P00749), each taken from published literature.
Property Label: log10(Ki) (log10 of the value in µM)

>>> val("NC(N)=Nc1ncc(Cl)cc1/C=C/c1cccc(C(=O)O)c1")
-0.77
>>> val("CSc1sc(C(=N)N)cc1-c1csc(Nc2ccccc2C(C)C)n1")
-0.15
>>> val("CCC(CC)Oc1cccc(NC(=O)c2ccc3cc(C(=N)N)ccc3c2)c1")
-0.98
>>> val("NC(N)=Nc1nccc2ccc(-c3ccccc3)cc12")
-0.40
>>> val("C[S+](Cc1ccc2cc1C(=O)NCC(=O)NC(CCCCN)C(=O)N2)c1ccccc1 (stereo unspecified)")
2.70
>>> val("CSc1sc(C(=N)N)cc1-c1nc(-c2ccc3ccccc3c2)cs1")
2.14
>>> val("Nc1ccc2cccc(NC(=O)C3CC3)c2n1")
1.00
>>> val("CCC(=O)Nc1cccc(S(=O)(=O)N[C@@H](Cc2cccc(C(=N)N)c2)C(=O)N2CCC(CCN)CC2)c1")
0.91

----------
Listed below are compounds with Ki for Urokinase-type plasminogen activator (Homo sapiens), each taken from published literature.
Property Label: Ki (nM)

>>> val("C[C@H](N)C(=O)N[C@H]1CSCc2cc3cc(c2)CSC[C@@H](C(=O)NCC(=O)O)NC(=O)[C@@H]2CCCN2C(=O)CNC(=O)CNC(=O)[C@H](CCCNC(=N)N)NC(=O)CNC(=O)[C@H](CCCNC(=N)N)NC(=O)[C@H](CSC3)NC(=O)[C@H](CC(=O)O)NC(=O)[C@H]([C@@H](C)O)NC(=O)[C@H](C)NC(=O)[C@H](C)NC(=O)[C@H](Cc2cnc[nH]2)NC(=O)[C@H](CC(N)=O)NC1=O")
710
>>> val("COc1ncc(-c2nc(C(=O)NC(=N)N)c(N)nc2N)c(OC)n1")
1630
>>> val("CNCc1c(NC(=O)OCC(Oc2cccc3sc(C(=N)N)cc23)c2ccccc2)c(C)nn1C (stereo unspecified)")
156
>>> val("N=C(N)c1cccc(C[C@H](NS(=O)(=O)c2cccc(NC(=O)CCN)c2)C(=O)N2CCC(CCCC(N)=O)CC2)c1")
2100
>>> val("CCOC(=O)N1CCN(C(=O)C(Cc2cccc(C(N)N)c2)NS(=O)(=O)c2c(C(C)C)cc(C(C)C)cc2C(C)C)CC1 (stereo unspecified)")
410
>>> val("N=C(N)Nc1ncc(Cl)c2ccc(-c3ccc(C(=O)O)cc3)cc12")
82
>>> val("NC(N)=Nc1nccc2ccc(S(N)(=O)=O)cc12")
280
>>> val("Cc1nccc(-c2cccc(S(=O)(=O)N[C@@H](Cc3cccc(C(=N)N)c3)C(=O)N3CCC(CCN)CC3)c2)n1")
8700
>>> val("COc1ccc(Nc2nc(-c3cc(C(=N)N)sc3SC)cs2)cc1")
280
>>> val("N=C(N)c1cc(-c2nc(-c3ccc(Cl)cc3)cs2)c(SCc2ccccc2)s1")
2500
>>> val("CC1CCN(C(=O)C(Cc2cccc(C(=N)N)c2)NS(=O)(=O)c2cccc3ccccc23)CC1 (stereo unspecified)")
34000
>>> val("N=C(N)NCCC1CCN(C(=O)[C@H](Cc2cccc(C(=N)N)c2)NS(=O)(=O)c2ccc(Oc3ccccc3)nc2)CC1")
3400
>>> val("NC(N)=Nc1ncccc1O")
147000
>>> val("Cc1sc(C(=N)N)cc1-c1csc(N)n1")
1620
>>> val("COc1cccc(-c2ccc3c(Cl)cnc(N=C(N)N)c3c2)c1")
83
>>> val("COc1cc(NC(=O)c2ccc3cc(C(=N)N)ccc3c2)cc(OC)c1")
139
>>> val("CSc1sc(C(=N)N)cc1-c1nc(-c2ccnc(Cl)c2)cs1")
120000
>>> val("Cc1c(C)c(S(=O)(=O)N[C@@H](Cc2cccc(C(=N)N)c2)C(=O)N2CCN(C(=O)CCN=C(N)N)CC2)c(C)c2c1OC(C)(C)C2")
25000
>>> val("NC(N)=Nc1ncc(Cl)c2ccc(S(=O)(=O)NC3(C(=O)NCCO)CCCC3)cc12")
10
>>> val("N=C(N)Nc1ccc(CC(=O)c2ccccc2)cc1")
34000
>>> val("Cc1sc(C(=N)N)cc1-c1csc(Nc2ccc(Oc3ccccc3)cc2)n1")
80

----------
Listed below are compounds with Ki for Urokinase-type plasminogen activator (Homo sapiens), each taken from published literature.
Property Label: Ki (µM)

>>> val("N=C(N)c1cccc(C[C@H](NS(=O)(=O)c2cccc(NC(=O)CCN)c2)C(=O)N2CCC(CCCN=C(N)N)CC2)c1")
1.8
>>> val("Cc1n[nH]c(C)c1NC(=O)OCC(Oc1cccc2sc(C(=N)N)cc12)c1ccccc1 (configuration not stated)")
0.058
>>> val("CC(C)c1cc(C(C)C)c(S(=O)(=O)N[C@@H](Cc2cccc(C(=N)N)c2)C(=O)N2CCC(CCN=C(N)N)CC2)c(C(C)C)c1")
0.32
>>> val("CS(=O)(=O)c1sc(C(=N)N)cc1-c1nc(-c2ccc(Cl)cc2)cs1")
2.5
>>> val("CC(=O)NCC(Oc1cccc2sc(C(=N)N)cc12)c1ccccc1 (configuration not stated)")
0.22
>>> val("COc1ccc(-c2cccc(S(=O)(=O)NC(Cc3cccc(C(=N)N)c3)C(=O)N3CCC(CCN)CC3)c2)cc1OC (racemic)")
14
>>> val("N=C(N)c1ccc2cc(CCc3ccccc3)ccc2c1")
3.18
>>> val("CC(C)CNCc1ccccc1NC(=O)OCC(Oc1cccc2sc(C(=N)N)cc12)c1ccccc1 (configuration not stated)")
0.733
>>> val("CNCc1cc(NC(=O)OCC(Oc2cccc3sc(C(=N)N)cc23)c2ccccc2)n(C)n1 (configuration not stated)")
0.251
>>> val("CC[C@H](C)[C@@H]1NC(=O)[C@H](CO)NC(=O)[C@H](CO)NC(=O)[C@H](CCCNC(=N)N)NC(=O)CNC(=O)[C@H](CCCNC(=N)N)NC(=O)[C@@H]2CSCc3cc(cc(c3)CSC[C@@H](C(=O)NCC(=O)O)NC1=O)CSC[C@H](NC(=O)[C@H](C)N)C(=O)N[C@@H]([C@@H](C)O)C(=O)N[C@@H](CCC(=O)O)C(=O)N[C@@H](Cc1ccccc1)C(=O)N[C@@H](CCC(N)=O)C(=O)N[C@@H]([C@@H](C)O)C(=O)N[C@@H](CC(=O)O)C(=O)N2")
0.9

----------
Listed below are compounds with Ki for Urokinase-type plasminogen activator (Homo sapiens), each taken from published literature.
Property Label: Ki (µM)

>>> val("CCCCCC(NC(=O)[C@@H]1CCCN1C(=O)[C@H](Cc1ccccc1)NC(=O)OCc1ccccc1)B1O[C@@H]2CC3CC(C3(C)C)[C@]2(C)O1 (stereo in doubt; 3)")
23
>>> val("COc1ccc(NC(=O)OC[C@H](Oc2cccc3sc(C(=N)N)cc23)c2ccccc2)cc1")
0.089
>>> val("CSc1sc(C(=N)N)cc1-c1nc(-c2cnccc2Cl)cs1")
164
>>> val("COc1ccccc1-c1csc(-c2cc(C(=N)N)sc2SC)n1")
130
>>> val("CSc1sc(C(=N)N)cc1-c1nc(-c2ccc3c(c2)OCCO3)cs1")
108
>>> val("N#Cc1cccc(-c2ccc3c(Cl)cnc(N=C(N)N)c3c2)c1")
0.3
>>> val("COC(=O)COc1cccc(-c2csc(-c3cc(C(=N)N)sc3SC)n2)c1")
44
>>> val("CC(C)C[C@@H]1NC(=O)[C@H](CO)NC(=O)[C@H](Cc2ccccc2)NC(=O)[C@H](CCCCN)NC(=O)[C@H](Cc2c[nH]c3ccccc23)NC(=O)[C@H](CC(N)=O)NC(=O)[C@@H](NC(=O)[C@H](C)N)CSCc2cc3cc(c2)CSC[C@H](NC1=O)C(=O)N[C@@H](CCC(=O)O)C(=O)N[C@@H]([C@@H](C)O)C(=O)N[C@@H](CCC(N)=O)C(=O)N[C@@H](CCCNC(=N)N)C(=O)N[C@@H](CC(N)=O)C(=O)N[C@@H](CCC(N)=O)C(=O)N[C@H](C(=O)NCC(=O)O)CSC3")
1.48
>>> val("N=C(N)c1ccc2[nH]c(-c3cc(CCOP(=O)(O)O)cc(Br)c3O)c(Cc3ccccc3)c2c1")
0.4
>>> val("[H]/N=C(/N)c1ccc2cc(C(=O)Nc3ccccc3)cc(Nc3ncccn3)c2c1")
0.002
>>> val("CCCCCC(NC(=O)[C@@H]1CCCN1C(=O)[C@@H](NC(=O)OCc1ccccc1)C(c1ccccc1)c1ccccc1)B1O[C@@H]2CC3CC(C3(C)C)[C@]2(C)O1 (some centres not stated)")
540
>>> val("N=C(N)Nc1ncc(Cl)cc1Oc1ccccc1")
2.13
>>> val("NC(N)=Nc1ncc(Cl)c2ccc(S(=O)(=O)N3CCC[C@@H]3C(=O)O)cc12")
0.0099
>>> val("CC(C)c1cc(C(C)C)c(S(=O)(=O)N[C@@H](Cc2cccc(C(=N)N)c2)C(=O)N2CCNCC2)c(C(C)C)c1")
0.87
>>> val("N=C(N)c1ccc2cc(C(=O)Nc3ccc4c(c3)CCCN4)ccc2c1")
0.251
>>> val("N=C(N)NCCC(=O)N1CCN(C(=O)[C@H](Cc2cccc(C(=N)N)c2)NS(=O)(=O)c2ccc3cc4ccccc4cc3c2)CC1")
6.1
>>> val("COc1cccc(-c2csc(-c3cc(C(=N)N)sc3SC)n2)c1")
115
>>> val("Cc1ccccc1NC(=O)OCC(Oc1cccc2sc(C(=N)N)cc12)c1ccccc1 (configuration not stated)")
0.308
